A collection of compounds and their measured hemolysis at 2 h, 125 μg/mL
Experiment summary: Hemolytic activity in mice erythrocytes
Format: cell-based, Mus musculus
Conditions used: male, Swiss albino, mouse, pH 7.4; 125 μg/mL; 37°C, 2 h
Field format: number, assumed %, no unit text.

compound=C=CCc1ccc(OC)cc1 quantity_kind="hemolysis at 2 h, 125 μg/mL" obs_value=4.45

Would you kindly look at the next entry?
hemolysis at 2 h, 125 μg/mL measured on CC(C)CCCC(C)CCO (centres unmarked) = 5.33

---

Experiment summary: Hemolytic activity in mice erythrocytes
Format: cell-based, Mus musculus
Conditions used: male, Swiss albino, mouse, pH 7.4; 31.25 μg/mL; 37°C, 2 h
Quantity kind: hemolysis at 2 h, 31.25 μg/mL (%)
Field format: number, assumed %, no unit text.

hemolysis at 2 h, 31.25 μg/mL measured on C=CCc1ccc(OC)cc1 [Estragole, estragole] = 1.67

---

A collection of compounds and their measured hemolysis at 2 h, 31.25 μg/mL
Experiment summary: Hemolytic activity in mice erythrocytes
Type: cell-based, Mus musculus
Conditions used: male, Swiss albino, mouse, mouse erythrocyte suspension, pH 7.4, 31.25 μg/mL; 37°C, 2 h
Field format: number, assumed %, no unit text.

compound="CC(C)CCCC(C)CCO (centres unmarked)" obs_value=3.66

Would you kindly look at the next entry?
hemolysis at 2 h, 31.25 μg/mL measured on CC(C)=CCC/C(C)=C\CO [Nerol, cis-3,7-dimethyl-2,6-octadien-1] = 2.67

---

Experiment summary: Hemolytic activity in mice erythrocytes
Assay type: cell-based, Mus musculus
Conditions used: male, Swiss albino, mouse, pH 7.4; 250 μg/mL; 37°C, 2 h
Quantity kind: hemolysis at 2 h, 250 μg/mL (%)
Field format: number, assumed %, no unit text.

hemolysis at 2 h, 250 μg/mL measured on C=CCc1ccc(OC)cc1 = 8.21
